pKi for Adenosine receptor A2a (Rattus norvegicus, UniProt P30543) - collated from the literature.
pKi: −log10 of the molar value.
Decision: pKi >= 7 yields T, all other cases yield F.

{"compound": "CCCn1c(=O)c2c(nc3n2CCCN3c2ccc(OCCN(C)C)cc2)n(CCC)c1=O", "assigned.category": "F"}
{"compound": "Nc1nc(-c2cccs2)cc2nc(-c3ccco3)nn12", "assigned.category": "T"}
{"compound": "Cn1cnc2c1C1=NCCN1C(=O)N2Cc1ccccc1", "assigned.category": "F"}
{"compound": "C#Cc1nc(N)c2ncn(C3O[C@H](CO)[C@@H](O)[C@H]3O)c2n1 (some centres undefined)", "assigned.category": "T"}
{"compound": "CCCCn1c(=O)c2c(ncn2C2O[C@H](CO)[C@@H](O)[C@H]2O)n(CCCC)c1=S (some centres undefined)", "assigned.category": "F"}
{"compound": "CCN[C@H]1CCN(CC(=O)Nc2cc(-n3nc(C)cc3C)nc(-c3ccc(C)o3)n2)C1", "assigned.category": "T"}
{"compound": "COc1ccc(-c2cc3nc(-c4ccco4)nn3c(N)n2)c(OC)c1OC", "assigned.category": "T"}
{"compound": "Cn1c(=O)c2c(nc3n2CCN(CCCn2cccc2)C3)n(C)c1=O", "assigned.category": "F"}
{"compound": "COCCOc1ccc(N2CCN(CCn3ncc4c3nc(N)n3nc(-c5ccco5)nc43)CC2)cc1", "assigned.category": "T"}
{"compound": "CCCn1c(=O)c2nc([C@]34CC[C@](CC(=O)O)(CC3)CC4)[nH]c2n(CCC)c1=O", "assigned.category": "F"}

Lookup: API: above_or_equal(metric=pKi, cutoff=7) for item CCNC(=O)[C@H]1OC(n2cnc3c(N)nc(C#CNCCc4ccc(CC(=O)O)cc4)nc32)[C@H](O)[C@@H]1O (some centres undefined)
Found: T

Lookup: API: above_or_equal(metric=pKi, cutoff=7) for item Nc1nc(OCCc2ccc(Cl)cc2)nc2c1ncn2[C@@H]1O[C@H](CO)[C@@H](O)[C@H]1O
Found: T

Lookup: API: above_or_equal(metric=pKi, cutoff=7) for item Cc1ccc(-c2cc(-c3cccc(C(=O)N4CCCC4)c3)nc(N)n2)o1
Found: T

Lookup: API: above_or_equal(metric=pKi, cutoff=7) for item Nc1nc2c(cnn2CCCc2ccc(O)cc2)c2nc(-c3ccco3)nn12
Found: T

----------
pKi for Adenosine receptor A2a (Rattus norvegicus) - collated from the literature.
In plain terms, pKi is the concentration in mol/L turned into minus its base-10 logarithm.

These solved cases illustrate the format of a correct answer.
{"molecule": "CCCOC1=Nc2c(cnn2-c2ccccc2)C2=N[C@@H](Cc3ccccc3)CN12", "pKi": 5.48}
{"molecule": "OC[C@H]1O[C@@H](n2cnc3c(NC4CC4)ncnc32)[C@H](O)[C@@H]1O", "pKi": 6.29}
{"molecule": "CN(C)c1nc(NC(=O)Nc2ccccc2)n2nc(-c3ccco3)nc2n1", "pKi": 6.24}
{"molecule": "Cn1c(=O)c2c(nc3n2CCCN3Cc2cccc(Cl)c2)n(C)c1=O", "pKi": 5.95}
{"molecule": "O=C(Nc1nc2ccc(Cl)cc2c2nc(-c3ccco3)nn12)c1cccc(I)c1", "pKi": 6.51}
{"molecule": "Nc1nc(N2CCN(Cc3c(F)cccc3F)CC2)nc2nc(-c3ccco3)nn12", "pKi": 7.80}
{"molecule": "Nc1nc(N2CCN(Cc3cnc4ccccc4c3)CC2)nc2nc(-c3ccco3)nn12", "pKi": 7.24}
{"molecule": "CC(Nc1ncnc2c1ncn2[C@@H]1O[C@H](CO)[C@@H](O)[C@H]1O)[C@@H](O)c1ccccc1 (some centres undefined)", "pKi": 6.41}

Now take the following molecule into account.
Lookup: Param readout= pKi; system= Adenosine receptor A2a (Rattus norvegicus); entry= COc1cccc(C#CC(=O)Nc2nc3ccccc3c(=O)s2)c1 ; returns value.
Found: 5.76

----------
Ki for UniProt:P30543 - collated from the literature.
Dear colleague, please return just the value in nM, with no unit written.

These solved cases illustrate the format of a correct answer.
{"smiles.representation": "Cn1c(=O)c2c(nc3n2CCN(CCc2c(Cl)cccc2Cl)C3)n(C)c1=O", "u": "nM", "observed.value": 3050}
{"smiles.representation": "Nc1nc(C#CCOc2cccnc2)cn2nc(-c3ccco3)nc12", "u": "nM", "observed.value": 92}

Lookup: Param readout= Ki; system= UniProt:P30543; entry= CCNC(=O)[C@H]1O[C@@H](n2cnc3c(NC(=O)Nc4cccc(OC)c4)ncnc32)[C@H](O)[C@@H]1O ; returns value.
Found: 3860

Lookup: Param readout= Ki; system= UniProt:P30543; entry= Nc1nc(-c2cccc(Cl)c2)cc(-c2ccco2)n1 ; returns value.
Found: 245

----------
Ki for UniProt:P30543 - collated from the literature.
Dear colleague, please return just the value in nM, with no unit written.

These solved cases illustrate the format of a correct answer.
{"compound": "Nc1nc(NC[C@H]2CCCN2Cc2ccco2)nc2nc(-c3ccco3)nn12", "assayed.system": "UniProt:P30543", "measured.property": "Ki", "u": "nM", "observed.value": 18}
{"compound": "CC[C@@H]1CN2C(=O)N(C)c3nc(/C=C/c4ccccc4)n(C)c3C2=N1", "assayed.system": "UniProt:P30543", "measured.property": "Ki", "u": "nM", "observed.value": 547}
{"compound": "CN(C)c1cccc(-c2cn3nc(-c4ccco4)nc3c(N)n2)c1", "assayed.system": "UniProt:P30543", "measured.property": "Ki", "u": "nM", "observed.value": 140}

Lookup: // Ki lookup, key: OC[C@H]1O[C@@H](n2cnc3c(NC4COc5ccccc5O4)ncnc32)[C@H](O)[C@@H]1O (stereo partly specified)
Found: 293

Lookup: // Ki lookup, key: CCNC(=O)[C@H]1OC(n2cnc3c(N)nc(C#Cc4ccc(C(C)=O)cc4)nc32)[C@H](O)[C@@H]1O (stereo partly specified)
Found: 187

----------
Ki for Adenosine receptor A2a (Rattus norvegicus) - collated from the literature.

{"smiles.representation": "Cn1c(=O)c2c(nc3n2CCN(Cc2nocc2-c2ccccc2)C3)n(C)c1=O", "assayed.system": "Adenosine receptor A2a (Rattus norvegicus)", "observed.value": "> 1 µM"}

Lookup: // Ki lookup, key: CN(C)c1ccc(-c2cn3nc(-c4ccco4)nc3c(N)n2)cc1
Found: > 1 µM

Lookup: // Ki lookup, key: Nc1nc(C#CCO)cn2nc(-c3ccco3)nc12
Found: > 0.5 µM

----------
pKi: −log10 of the molar value.
pKi for UniProtKB P30543 - collated from the literature.

{"smiles.representation": "Cc1ccc(-c2nc3ccccc3c(=O)[nH]2)cc1", "pKi": "< 4.00"}
{"smiles.representation": "Cc1nc2nc(-c3ccccc3)[nH]c(N[C@H](C)c3ccccc3)c-2c1C", "pKi": "< 4.52"}
{"smiles.representation": "Cn1c(=O)c2c(nc3n2CCN(CC#Cc2ccc(Cl)c(Cl)c2)C3)n(C)c1=O", "pKi": "< 6.00"}

Now take the following molecule into account.
Lookup: Param readout= pKi; system= UniProtKB P30543; entry= Cc1c(C)n([C@H](C)c2ccccc2)c2nc(-c3ccc(Cl)cc3)nc(N)c12 ; returns value.
Found: < 4.52

----------
pKi: −log10 of the molar value.
pKi for UniProt:P30543 - collated from the literature.

Lookup: // pKi lookup, key: Nc1nc(-c2ccc(C(=O)NCCc3ccc(O)cc3)cc2)cn2nc(-c3ccco3)nc12
Found: 6.08

Lookup: // pKi lookup, key: Cc1c(C)n([C@@H](C)c2ccccc2)c2nc(-c3ccc(Cl)cc3)nc(N)c12
Found: < 4.52

Lookup: // pKi lookup, key: CNC(=O)Cn1cc(-c2nc(N)c3ncn([C@@H]4O[C@H](CO)[C@@H](O)[C@H]4O)c3n2)cn1
Found: < 4.00

----------
pKi for Adenosine receptor A2a (Rattus norvegicus, UniProt P30543) - collated from the literature.
pKi: −log10 of the molar value.

These solved cases illustrate the format of a correct answer.
{"smiles.representation": "O=C(Nc1nc2ccccc2c(=O)s1)c1ccc(C(=O)N2CCN(Cc3ccccc3Cl)CC2)cc1", "assayed.system": "Adenosine receptor A2a (Rattus norvegicus, UniProt P30543)", "pKi": "< 5.00"}
{"smiles.representation": "CCCn1c(=O)c2c(nc3n2CCCN3c2ccc(OCCN3CCCCC3)cc2)n(CCC)c1=O", "assayed.system": "Adenosine receptor A2a (Rattus norvegicus, UniProt P30543)", "pKi": "< 6.00"}
{"smiles.representation": "CN(/N=C(\\CO)[C@H](O)[C@@H](O)[C@@H](O)CO)c1nc(N)c2ncn([C@@H]3O[C@H](CO)[C@@H](O)[C@H]3O)c2n1", "assayed.system": "Adenosine receptor A2a (Rattus norvegicus, UniProt P30543)", "pKi": "< 6.00"}
{"smiles.representation": "CSc1nc(NC(=O)C(c2ccccc2)c2ccccc2)n2nc(-c3ccco3)nc2n1", "assayed.system": "Adenosine receptor A2a (Rattus norvegicus, UniProt P30543)", "pKi": "< 5.00"}
{"smiles.representation": "Cn1c(=O)c2c(nc3n2CCN(CCOc2ccccc2F)C3)n(C)c1=O", "assayed.system": "Adenosine receptor A2a (Rattus norvegicus, UniProt P30543)", "pKi": "< 6.00"}

Lookup: // pKi lookup, key: S=c1[nH]nc2c3c4c(sc3nc(-c3ccccc3)n12)CCCC4
Found: < 5.00

Lookup: // pKi lookup, key: CN(/N=C/[C@H](O)[C@H](O)[C@@H](O)[C@@H](O)CO)c1nc(N)c2ncn([C@@H]3O[C@H](CO)[C@@H](O)[C@H]3O)c2n1
Found: < 6.00
